assay: Cytotoxicity against African green monkey Vero cells after 72 hrs by MTT assay; format: cell-based; details: chlorocebus sabaeus, Vero cells
In this section, each of the compounds is paired with its reported CC50 at 72 h.
Reply numerically in µM, unit not repeated.

Below are worked cases with known answers.
- O=C(/C=C/c1ccc(Cl)cc1)NCCNc1ccnc2cc(Cl)ccc12: 6.93
- COc1cc(/C=C/C(=O)c2ccc(OCC(O)CNCCNc3ccnc4cc(Cl)ccc34)cc2)cc(OC)c1OC (stereo unspecified): 1.91
- CC(=O)c1ccccc1OCC(=O)NCCNc1ccnc2cc(Cl)ccc12: 106

Request: I am curious: what CC50 at 72 h value has been reported for COc1ccc(/C=C/C(=O)c2ccc(OCC(O)CNCCNc3ccnc4cc(Cl)ccc34)cc2)cc1 (stereo unspecified) ?
Response: 8.03

Request: CC50 at 72 h for `COc1cc(/C=C/C(=O)c2ccccc2OCC(=O)NCCNc2ccnc3cc(Cl)ccc23)cc(OC)c1OC` ?
Response: 3.92

Request: Please look up its CC50 at 72 h: `Cc1ccc(/C=C/C(=O)NCCNc2ccnc3cc(Cl)ccc23)cc1`
Response: 4

###

system: Plasmodium falciparum; assay: Antimalarial activity against chloroquine sensitive Plasmodium falciparum 3D7 after 72 hrs by SYBR green 1 dye based fluorescence assay; assay type: functional; conditions: Plasmodium falciparum, 3D7, 72 h; read-out: IC50
pIC50: −log10 of the molar value.
Would you please tag the item Met when its pIC50 is 7 or above, and Not met when it is below?

- COc1cc(OC)c(OC)cc1/C=C/C(=O)NCCNc1ccnc2cc(Cl)ccc12: Met

Read the next record carefully.
Request: Test whether the molecule `O=C(COc1ccccc1C(=O)/C=C/c1ccc(Cl)cc1)NCCNc1ccnc2cc(Cl)ccc12` records pIC50 of 7 or higher.
Response: Not met

###

Overview of recorded CC50 at 72 h for various molecules
assay: Cytotoxicity against African green monkey Vero cells after 72 hrs by MTT assay; format: cell-based; settings: chlorocebus sabaeus, Vero cells
Number plus unit, in that order.

Worked examples, 2 molecules total:
• COc1ccc(/C=C/C(=O)c2ccc(OCC(O)CNCCNc3ccnc4cc(Cl)ccc34)cc2)cc1OC (centres undefined) = 10.2 µM
• COc1ccc(/C=C/C(=O)NCCNc2ccnc3cc(Cl)ccc23)cc1OC = 5.6 µM

Request: Field request: CC50 at 72 h | item: `COc1cc(OC)c(OC)cc1/C=C/C(=O)NCCNc1ccnc2cc(Cl)ccc12`
Response: 16.1 µM

Request: // returns reported CC50 at 72 h for input `COc1ccc(/C=C/C(=O)c2ccccc2OCC(=O)NCCNc2ccnc3cc(Cl)ccc23)cc1`
Response: 25 µM

Request: Recorded CC50 at 72 h for `O=C(COc1ccccc1C(=O)/C=C/c1ccc(Cl)cc1)NCCNc1ccnc2cc(Cl)ccc12` , please?
Response: 4.98 µM

###

Reported selectivity ratio is given for each of the following compounds.
test: Selectivity index, ratio of CC50 for African green monkey Vero cells to IC50 for chloroquine sensitive Plasmodium falciparum 3D7; format: toxicity; conditions: Vero cells, read-out: Ratio CC50/IC50

* COc1cc(OC)c(OC)cc1/C=C/C(=O)NCCNc1ccnc2cc(Cl)ccc12 | 756
* O=C(/C=C/c1ccc(Cl)cc1)NCCNc1ccnc2cc(Cl)ccc12 | 357
* COc1ccc(/C=C/C(=O)NCCNc2ccnc3cc(Cl)ccc23)cc1 | 1530
* COc1cc(OC)c(OC)cc1/C=C/C(=O)c1ccccc1OCC(=O)NCCNc1ccnc2cc(Cl)ccc12 | 130
* COc1cc(/C=C/C(=O)c2ccccc2OCC(=O)NCCNc2ccnc3cc(Cl)ccc23)cc(OC)c1OC | 56.7
* Cc1ccc(/C=C/C(=O)NCCNc2ccnc3cc(Cl)ccc23)cc1 | 182
* COc1ccc(/C=C/C(=O)c2ccccc2OCC(=O)NCCNc2ccnc3cc(Cl)ccc23)cc1OC | 55.3
* COc1cc(/C=C/C(=O)c2ccc(OCC(O)CNCCNc3ccnc4cc(Cl)ccc34)cc2)cc(OC)c1OC (centres undefined) | 142

Request: So what's the measured selectivity ratio for this one? COc1ccc(/C=C/C(=O)c2ccc(OCC(O)CNCCNc3ccnc4cc(Cl)ccc34)cc2)cc1 (centres undefined)
Response: 170

###

Below, each entry is listed alongside its reported pIC50.
system: Plasmodium falciparum; test: Antimalarial activity against chloroquine sensitive Plasmodium falciparum 3D7 after 72 hrs by SYBR green 1 dye based fluorescence assay; type: functional; conditions: Plasmodium falciparum, 3D7, 72 h; read-out: IC50
Please keep in mind that pIC50 is minus log10 of the molar concentration; only the number is needed.

• O=C(/C=C/c1ccc(Cl)cc1)NCCNc1ccnc2cc(Cl)ccc12 = 7.71
• COc1ccc(/C=C/C(=O)NCCNc2ccnc3cc(Cl)ccc23)cc1OC = 7.85
• COc1ccc(/C=C/C(=O)c2ccccc2OCC(=O)NCCNc2ccnc3cc(Cl)ccc23)cc1OC = 7.02
• COc1ccc(/C=C/C(=O)NCCNc2ccnc3cc(Cl)ccc23)cc1 = 7.87
• CC(=O)c1ccccc1OCC(=O)NCCNc1ccnc2cc(Cl)ccc12 = 7.98
• COc1ccc(/C=C/C(=O)c2ccc(OCC(O)CNCCNc3ccnc4cc(Cl)ccc34)cc2)cc1 (stereo not given) = 7.33
• COc1cc(/C=C/C(=O)c2ccc(OCC(O)CNCCNc3ccnc4cc(Cl)ccc34)cc2)cc(OC)c1OC (stereo not given) = 7.87
• COc1cc(OC)c(OC)cc1/C=C/C(=O)c1ccccc1OCC(=O)NCCNc1ccnc2cc(Cl)ccc12 = 7.03
• COc1ccc(/C=C/C(=O)c2ccc(OCC(O)CNCCNc3ccnc4cc(Cl)ccc34)cc2)cc1OC (stereo not given) = 7.10

Let us examine a further case.
Request: Look up pIC50 for this compound: `Cc1ccc(/C=C/C(=O)NCCNc2ccnc3cc(Cl)ccc23)cc1`
Response: 7.66

###

Overview of recorded selectivity ratio for various compounds
experiment: Selectivity index, ratio of CC50 for African green monkey Vero cells to IC50 for chloroquine sensitive Plasmodium falciparum 3D7; type: toxicity; details: Vero cells, read-out: Ratio CC50/IC50

* COc1ccc(/C=C/C(=O)NCCNc2ccnc3cc(Cl)ccc23)cc1OC | 396
* COc1ccc(/C=C/C(=O)c2ccc(OCC(O)CNCCNc3ccnc4cc(Cl)ccc34)cc2)cc1OC (stereo unspecified) | 128
* O=C(COc1ccccc1C(=O)/C=C/c1ccc(Cl)cc1)NCCNc1ccnc2cc(Cl)ccc12 | 19.5

Request: # query: selectivity ratio of entry `CC(=O)c1ccccc1OCC(=O)NCCNc1ccnc2cc(Cl)ccc12`
Response: 10200

Request: Name the recorded selectivity ratio for `COc1ccc(/C=C/C(=O)c2ccccc2OCC(=O)NCCNc2ccnc3cc(Cl)ccc23)cc1` .
Response: 186

Request: Request the reported selectivity ratio associated with `O=C(/C=C/c1ccco1)NCCNc1ccnc2cc(Cl)ccc12`
Response: 6700

###

test system: Plasmodium falciparum; experiment: Antimalarial activity against chloroquine sensitive Plasmodium falciparum 3D7 after 72 hrs by SYBR green 1 dye based fluorescence assay; format: functional; conditions: Plasmodium falciparum, 3D7, 72 h; read-out: IC50
value_type: IC50 (nM)
Write the number in nM without appending the unit.

As a guide, the following entries are already answered.
- COc1ccc(/C=C/C(=O)c2ccccc2OCC(=O)NCCNc2ccnc3cc(Cl)ccc23)cc1: 134
- COc1cc(/C=C/C(=O)c2ccccc2OCC(=O)NCCNc2ccnc3cc(Cl)ccc23)cc(OC)c1OC: 69.1

Please examine the following record next.
Request: Name the reported IC50 value associated with the compound `O=C(/C=C/c1ccco1)NCCNc1ccnc2cc(Cl)ccc12`
Response: 94

###

experiment: Cytotoxicity against African green monkey Vero cells after 72 hrs by MTT assay; type: cell-based; conditions: chlorocebus sabaeus, Vero cells
Measured CC50 at 72 h values are reported for all entries that follow.
Answer in µM, number only, no unit symbol.

Use the examples below as a reference point.
• COc1ccc(/C=C/C(=O)c2ccccc2OCC(=O)NCCNc2ccnc3cc(Cl)ccc23)cc1OC = 5.31
• O=C(/C=C/c1ccco1)NCCNc1ccnc2cc(Cl)ccc12 = 629
• COc1cc(OC)c(OC)cc1/C=C/C(=O)c1ccccc1OCC(=O)NCCNc1ccnc2cc(Cl)ccc12 = 12.2

Request: Recorded CC50 at 72 h of `COc1ccc(/C=C/C(=O)NCCNc2ccnc3cc(Cl)ccc23)cc1` , please.
Response: 20.6

Origin of values: ChEMBL document CHEMBL4052633
